Molecular target: human Tissue Factor (TF) (human, UniProt P13726 33-295)
Assay: cell-based or functional assay
Entry flag: True if % GM-CSF at 16 nM antibody reaches 20%; False if it does not.

25A (antibody, human IgG1, V domains shown, Human IgG1; also called antibody designated 25A; Antibody Clone 25A) VH: QVQLVQSGAEVKKPGASVKVSCKASGYTFDVYGISWVRQAPGQGLEWMGWIAPYNGNTNYAQKLQGRVTMTTDTSTSTAYMELRSLRSDDTAVYYCARDAGTYSPFGYGMDVWGQGTTVTVSS VL: DIQMTQSPSTLSASVGDRVTITCRASQSISSWLAWYQQKPGKAPKLLIYKASSLESGVPSRFSGSGSGTEFTLTISSLQPDDFATYYCQQFQSLPPFTFGGGTKVEIK    True
25G9 (antibody, human IgG1, V domains shown) VH: QVQLVQSGAEVKKPGASVKVSCKASGYTFRSYGISWVRQAPGQGLEWMGWVAPYSGNTNYAQKLQGRVTMTTDTSTSTAYMELRSLRSDDTAVYYCARDAGTYSPYGYGMDVWGQGTTVTVSS VL: DIQMTQSPSTLSASVGDRVTITCQASQSIDSWLAWYQQKPGKAPKLLIYSASYLESGVPSRFSGSGSGTEFTLTISSLQPDDFATYYCQRFQSLPPFTFGGGTKVEIK    True
43D (antibody, human IgG1, V domains shown) VH: QVQLQQWGAGLLKPSETLSLTCAVYGGSLSGYYWSWIRQPPGKGLEWIGEIGASGSTRYNPSLKSRVTISVDTSKNQFSLKLSSVTAADTAVYYCARDTPYYYEGGYYYYMDVWGKGTTVTVSS VL: EIVLTQSPGTLSLSPGERATLSCRASQSVSSSYLAWYQQKPGQAPRLLIYGASSRATGIPDRFSGSGSGTDFTLTISRLEPEDFAVYYCQQVGVVPYTFGGGTKVEIK    False
25G (antibody, human IgG1, V domains shown, Human IgG1; also called antibody designated 25G) VH: QVQLVQSGAEVKKPGASVKVSCKASGYTFRSYGISWVRQAPGQGLEWMGWVAPYNGNTNYAQKLQGRVTMTTDTSTSTAYMELRSLRSDDTAVYYCARDAGTYSPYGYGMDVWGQGTTVTVSS VL: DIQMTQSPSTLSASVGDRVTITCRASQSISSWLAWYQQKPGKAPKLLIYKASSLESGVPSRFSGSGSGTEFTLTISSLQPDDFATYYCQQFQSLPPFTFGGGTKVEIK    True
39A (antibody, human IgG1, V domains shown, Human IgG1; also called antibody designated 39A) VH: QVQLVQSGAEVKKPGSSVKVSCKASGGTFSSNAIGWVRQAPGQGLEWMGSIIPIIGFANYAQKFQGRVTITADESTSTAYMELSSLRSEDTAVYYCARDSGYYYGASSFGMDVWGQGTTVTVSS VL: EIVMTQSPATLSVSPGERATLSCRASQSVSSNLAWYQQKPGQAPRLLIYGASTRATGIPARFSGSGSGTEFTLTISSLQSEDFAVYYCEQYNNLPLTFGGGTKVEIK    False
54E (antibody, human IgG1, V domains shown, Human IgG1; also called antibody designated 54E) VH: QVQLVQSGAEVKKPGASVKVSCKASGYTFANYYMHWVRQAPGQGLEWMGIINPSGGITVYAQKFQGRVTMTRDTSTSTVYMELSSLRSEDTAVYYCARGGSKVAALAFDIWGQGTMVTVSS VL: DIQMTQSPSSLSASVGDRVTITCQASQDISNSLNWYQQKPGKAPKLLIYDASNLETGVPSRFSGSRSGTDFTFTISSLQPEDIATYYCQQYNFHPLTFGGGTKVEIK    False
